biological target: Mcl-1/Bim interaction, recombinant human Mcl-1 (171-327) (Homo sapiens, UniProt Q07820); construct: made in house; assay: Cell free Mcl-1: Bim Affinity Assay (Mcl-1 HTRF); type: binding; details: TR-FRET, 0.1 nM Mcl-1 (171-327), 0.05 nM biotin-Bim (51-76)
Sequence (Q07820 171-327): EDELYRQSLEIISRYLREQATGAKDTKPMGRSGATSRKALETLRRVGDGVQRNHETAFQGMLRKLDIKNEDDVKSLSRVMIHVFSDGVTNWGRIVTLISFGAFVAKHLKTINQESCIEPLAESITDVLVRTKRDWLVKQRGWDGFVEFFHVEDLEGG
pIC50: −log10 of the molar value.
Classification field: enter y for pIC50 values not below 9, n for values below it.

- compound: "CC[C@@H]1CCCOC[C@@H]2CC[C@H]2CN2C[C@@]3(CCCc4cc(Cl)ccc43)COc3ccc(cc32)C(=O)NS1(=O)=O (single isomer, unassigned) [Example 368]"
  group.label: "n"
- compound: "C[C@@H]1[C@@H](C)C/C=C/[C@H](O[C@H]2CCOC2=O)[C@@H]2CC[C@H]2CN2C[C@@]3(CCCc4cc(Cl)ccc43)COc3ccc(cc32)C(=O)NS1(=O)=O (single isomer, unassigned) [Example 427]"
  group.label: "y"
- compound: "CC(C)NC(=O)CO[C@H]1/C=C/C[C@H](C)[C@@H](C)S(=O)(=O)NC(=O)c2ccc3c(c2)N(C[C@@H]2CC[C@H]21)C[C@@]1(CCCc2cc(Cl)ccc21)CO3 [Example 296]"
  group.label: "y"
